Entry source: paper PMC9934367

target.entity: Dα1/Dα3/Dβ1 nAChR (Drosophila melanogaster, UniProt P04755+P09478+Q9W3G6)
Construct: Dα1 (NP_524481); Dβ1 (NP_523927); expressed in transfected cells; host or cells: Xenopus laevis oocytes (cRNA injection)
assay.notes: cell-based
Design: species or system D. melanogaster
condition: efficacy, mean ± standard error (n = 5)
test.readout: Imax
Give the value as a plain number.

O=[N+]([O-])NC1=NCCN1Cc1ccc(Cl)nc1 0.170
N#C/N=C1\SCCN1Cc1ccc(Cl)nc1 0.047

Quick one: Imax of CC(=O)OCC[N+](C)(C)C ?
1

And CN/C(=N\[N+](=O)[O-])NCc1cnc(Cl)s1 ?
0.627

###

target.entity: Dα1/Dα2/Dβ1 nAChR (Drosophila melanogaster, UniProt P04755+P09478+P17644)
Construct: Dα1 (NP_524481); Dα2 (NP_524482); Dβ1 (NP_523927); expressed in transfected cells; host or cells: Xenopus laevis oocytes (cRNA injection)
assay.notes: Voltage-clamp electrophysiology, nAChR expressed in X. laevis oocytes
Format: cell-based, D. melanogaster
condition: efficacy, mean ± standard error (n = 5)
Protocol: cDNAs of the nAChR subunits and co-factors were cloned into pcDNA3.1 (+) vector (Thermo Fisher Scientific). […] Each defolliculated X. laevis oocyte was secured in a Perspex recording chamber and perfused with the standard oocyte saline (SOS) containing 0.5 μM atropine (SOSA) at a flow rate of 7−10 mL/min [48]. […] The peak amplitude of the response was measured and analysed by pCLAMP (Molecular Devices, USA). […]
test.readout: Imax
Give the value as a plain number.

Use these answered entries as a reference point.
CN/C(=N\[N+](=O)[O-])NCc1cnc(Cl)s1 0.699
CC(=O)OCC[N+](C)(C)C 1

Quick one: Imax of N#C/N=C1\SCCN1Cc1ccc(Cl)nc1 ?
0.025

And O=[N+]([O-])NC1=NCCN1Cc1ccc(Cl)nc1 ?
0.031

###

target.entity: Dα1/Dα2/Dβ1/Dβ2 nAChR (Drosophila melanogaster, UniProt P04755+P09478+P17644+P25162)
Construct: Dα1 (NP_524481); Dα2 (NP_524482); Dβ1 (NP_523927); Dβ2 (NP_524483)
assay.notes: Voltage-clamp electrophysiology, nAChR expressed in X. laevis oocytes
condition: mean ± standard error (n = 5)
test.readout: pEC50
Convention used: pEC50 is expressed as -log10 of the molar concentration.

Use these answered entries as a reference point.
N#C/N=C1\SCCN1Cc1ccc(Cl)nc1 7.10
CN/C(=N\[N+](=O)[O-])NCc1cnc(Cl)s1 6.31

Here is the next item to consider.
Quick one: pEC50 of O=[N+]([O-])NC1=NCCN1Cc1ccc(Cl)nc1 ?
6.45

###

Test system: Dα1/Dα2/Dα3/Dβ1/Dβ2 nAChR
Construct: Dα1 (NP_524481); Dα2 (NP_524482); Dβ1 (NP_523927); Dβ2 (NP_524483); expressed in transfected cells; host or cells: Xenopus laevis oocytes (cRNA injection)
assay.notes: Voltage-clamp electrophysiology, nAChR expressed in X. laevis oocytes
Format: cell-based, D. melanogaster
condition: efficacy, mean ± standard error (n = 5)
test.readout: Imax
Give the value as a plain number.

Please provide the recorded Imax for N#C/N=C1\SCCN1Cc1ccc(Cl)nc1 , tested on Dα1/Dα2/Dα3/Dβ1/Dβ2 nAChR.
0.059

And CN/C(=N\[N+](=O)[O-])NCc1cnc(Cl)s1 ?
0.812

And CC(=O)OCC[N+](C)(C)C ?
1

And O=[N+]([O-])NC1=NCCN1Cc1ccc(Cl)nc1 ?
0.142
